B1: TPR 5TU (parent)
chain: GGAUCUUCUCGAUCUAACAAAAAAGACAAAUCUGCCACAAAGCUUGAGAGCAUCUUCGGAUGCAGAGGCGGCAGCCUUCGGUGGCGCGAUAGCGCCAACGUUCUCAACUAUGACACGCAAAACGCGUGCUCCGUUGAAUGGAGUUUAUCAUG

- Variants of: B1
- procedure-text: polymerase ribozyme fitness, log enrichment relative to wild type (log ratio); higher = more active; in vitro selection for triplet polymerase activity
This sample holds only a part of the variants without activity.
The threshold is inclusive: polymerase ribozyme fitness (log ratio) of exactly -2 counts as Met; values below receive Not met.

Record C36G U55G A73U C108U C118A G133U ; criterion: polymerase ribozyme fitness (log ratio) no lower than -2. Met? Not met

Same question for A20C G48U G83U please. Not met

Would you kindly repeat that for C18G A49C G67U G84U A107U ? Not met

And then C57U U78A G80A A138G U139G , what is it? Not met

Please give the result for U55G G133U too. Not met

Follow-up entry: G94A C105G C116A G141C Not met

Next record, please: C76G G80C C105U Not met

Now the variant U4A C18U G67A C93G G124A Not met

Try this variant too: C10G U33A C69A C96G Not met

// next record C85U G140A Not met

How about C51A A52G ? Met

What do you get for A12U U55G A142C ? Met

What about this variant? U4G C5G A29G A52U G67U C79G G83A Not met

Follow-up entry: A3C C14G A39C G81U C96U C105U A121U U134C U135C U148C Not met

And for U15G U77A U78G G88U C149G ? Not met

What do we get for G84A U146A ? Met

Similarly, U13A A40U U55A C129A ? Not met

Also C35U U61A A66C C69U , if possible. Not met

One more variant: A39U G42C U77C C85A C95G Not met

Now the variant A22C A26U U33G G34A U55A A73U U77G G86A G143A Not met

Another variant to check: C57U C93G Not met

Another variant to check: A12C C125U Met
